Data credit: ChEMBL document CHEMBL3085655

target: Kappa-type opioid receptor (Homo sapiens)
Assign Ki to each entry below.
Expressed in nM, but write only the number.

Q: Ki lookup needed for `CCN[C@H]1C[C@H]2C[C@@](c3cccc(O)c3)(C1)[C@H](C)CN2CCCc1ccccc1` , thanks.
Result: 8.22

Q: Ki lookup needed for `C[C@@H]1CN(CCCc2ccccc2)[C@H]2C[C@H](NCC3CC3)C[C@]1(c1cccc(O)c1)C2` , thanks.
Result: 13.7

Q: Ki lookup needed for `C[C@@H]1CN(CCCc2ccccc2)[C@@H]2CCC[C@]1(c1cccc(O)c1)C2` , thanks.
Result: 7.79

Q: Ki lookup needed for `CN[C@H]1C[C@H]2C[C@@](c3cccc(O)c3)(C1)[C@H](C)CN2CCCc1ccccc1` , thanks.
Result: 20.9

Q: Ki lookup needed for `C[C@@H]1CN(CCCc2ccccc2)[C@H]2C[C@H](N(C)CC3CC3)C[C@]1(c1cccc(O)c1)C2` , thanks.
Result: 0.92

Q: Ki lookup needed for `C[C@@H]1CN(CCCc2ccccc2)[C@H]2C[C@H](N(C)C)C[C@]1(c1cccc(O)c1)C2` , thanks.
Result: 9.9

Q: Ki lookup needed for `CCCN[C@H]1C[C@H]2C[C@@](c3cccc(O)c3)(C1)[C@H](C)CN2CCCc1ccccc1` , thanks.
Result: 1.4

###

target: Kappa-type opioid receptor (Homo sapiens, UniProt P41145); experiment: Agonist activity at human kappa opioid receptor expressed in CHO cells by [35S]GTPgammaS binding assay
Sequence (P41145 whole entry): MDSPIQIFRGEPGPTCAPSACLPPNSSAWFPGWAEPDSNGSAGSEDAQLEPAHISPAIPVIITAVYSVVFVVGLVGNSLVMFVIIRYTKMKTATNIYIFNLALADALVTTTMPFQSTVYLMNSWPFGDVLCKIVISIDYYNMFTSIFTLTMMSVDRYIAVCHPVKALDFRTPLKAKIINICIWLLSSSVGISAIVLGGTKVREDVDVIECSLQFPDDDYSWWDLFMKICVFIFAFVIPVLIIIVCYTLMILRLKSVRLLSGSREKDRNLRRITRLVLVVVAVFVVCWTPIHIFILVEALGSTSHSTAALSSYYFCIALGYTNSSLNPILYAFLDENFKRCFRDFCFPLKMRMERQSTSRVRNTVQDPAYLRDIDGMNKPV
property_measured: pEC50
Answer as the number alone; pEC50 is minus log10 of concentration in mol/L.

Q: pEC50 lookup needed for `CCCN[C@H]1C[C@H]2C[C@@](c3cccc(O)c3)(C1)[C@H](C)CN2CCCc1ccccc1` , thanks.
Result: 6.53

Q: pEC50 lookup needed for `C[C@@H]1CN(CCCc2ccccc2)[C@H]2C[C@H](N(C)CC3CC3)C[C@]1(c1cccc(O)c1)C2` , thanks.
Result: 7.40

###

target: Delta-type opioid receptor (Homo sapiens); experiment: Displacement of [3H]DADLE from human delta opioid receptor expressed in CHO cells
property_measured: pKi
Answer as the number alone; pKi is minus log10 of concentration in mol/L.

Q: pKi lookup needed for `CCCN[C@H]1C[C@H]2C[C@@](c3cccc(O)c3)(C1)[C@H](C)CN2CCCc1ccccc1` , thanks.
Result: 7.13

Q: pKi lookup needed for `C[C@@H]1CN(CCCc2ccccc2)[C@H]2C[C@H](N(C)C)C[C@]1(c1cccc(O)c1)C2` , thanks.
Result: 7.74

Q: pKi lookup needed for `CN[C@H]1C[C@H]2C[C@@](c3cccc(O)c3)(C1)[C@H](C)CN2CCCc1ccccc1` , thanks.
Result: 7.44

Q: pKi lookup needed for `CCN[C@H]1C[C@H]2C[C@@](c3cccc(O)c3)(C1)[C@H](C)CN2CCCc1ccccc1` , thanks.
Result: 6.58

Q: pKi lookup needed for `C[C@@H]1CN(CCCc2ccccc2)[C@H]2C[C@H](N(C)CC3CC3)C[C@]1(c1cccc(O)c1)C2` , thanks.
Result: 8.04

Q: pKi lookup needed for `C[C@@H]1CN(CCCc2ccccc2)[C@@H]2CCC[C@]1(c1cccc(O)c1)C2` , thanks.
Result: 6.79

###

target: Delta-type opioid receptor (Homo sapiens, UniProt P41143); experiment: Agonist activity at human delta opioid receptor expressed in CHO cells by [35S]GTPgammaS binding assay; assay type: functional, cell-based
Sequence (P41143 whole entry): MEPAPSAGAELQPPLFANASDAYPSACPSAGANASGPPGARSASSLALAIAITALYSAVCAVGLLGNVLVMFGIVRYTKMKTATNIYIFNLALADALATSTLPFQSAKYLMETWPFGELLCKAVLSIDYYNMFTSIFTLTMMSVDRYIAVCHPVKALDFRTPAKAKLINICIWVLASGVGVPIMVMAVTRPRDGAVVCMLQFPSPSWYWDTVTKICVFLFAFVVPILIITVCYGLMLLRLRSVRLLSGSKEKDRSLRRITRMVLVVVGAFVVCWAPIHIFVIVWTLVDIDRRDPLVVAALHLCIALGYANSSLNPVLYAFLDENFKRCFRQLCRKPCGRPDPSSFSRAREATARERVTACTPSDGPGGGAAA
Assign EC50 to each entry below.
Expressed in nM, but write only the number.

Q: Query for Delta-type opioid receptor (Homo sapiens, UniProt P41143): what EC50 does the record show for `CN[C@H]1C[C@H]2C[C@@](c3cccc(O)c3)(C1)[C@H](C)CN2CCCc1ccccc1` ?
Result: 14.8

Q: Query for Delta-type opioid receptor (Homo sapiens, UniProt P41143): what EC50 does the record show for `C[C@@H]1CN(CCCc2ccccc2)[C@H]2C[C@H](N(C)C)C[C@]1(c1cccc(O)c1)C2` ?
Result: 38

Q: Query for Delta-type opioid receptor (Homo sapiens, UniProt P41143): what EC50 does the record show for `C[C@@H]1CN(CCCc2ccccc2)[C@H]2C[C@H](N(C)CC3CC3)C[C@]1(c1cccc(O)c1)C2` ?
Result: 10.3

###

biological target: Mu-type opioid receptor (Homo sapiens, UniProt P35372); test: Agonist activity at human mu opioid receptor expressed in CHO cells by [35S]GTPgammaS binding assay; format: functional, cell-based; details: cho
Sequence (P35372 whole entry): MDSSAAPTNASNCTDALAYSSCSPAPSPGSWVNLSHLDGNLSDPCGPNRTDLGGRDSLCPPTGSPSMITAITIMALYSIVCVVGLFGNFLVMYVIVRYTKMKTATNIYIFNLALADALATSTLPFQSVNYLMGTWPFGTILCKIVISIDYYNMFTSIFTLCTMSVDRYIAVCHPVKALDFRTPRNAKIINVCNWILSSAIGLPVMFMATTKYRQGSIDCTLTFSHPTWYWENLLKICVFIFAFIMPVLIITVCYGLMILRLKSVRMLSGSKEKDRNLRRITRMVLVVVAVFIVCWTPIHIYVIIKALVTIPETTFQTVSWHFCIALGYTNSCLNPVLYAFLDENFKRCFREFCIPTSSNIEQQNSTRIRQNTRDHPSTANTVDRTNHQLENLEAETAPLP
property_measured: EC50 (nM)
Expressed in nM, but write only the number.

Q: EC50 lookup needed for `C[C@@H]1CN(CCCc2ccccc2)[C@H]2C[C@H](N)C[C@]1(c1cccc(O)c1)C2` , thanks.
Result: 19.5

###

target: UniProtKB P35372
pKi: −log10 of the molar value.
Kindly return Y if reported pKi is no lower than 9; return N if it is lower.

Q: Hello, I need to know if `CCN[C@H]1C[C@H]2C[C@@](c3cccc(O)c3)(C1)[C@H](C)CN2CCCc1ccccc1` has measured pKi not below 9. Thanks!
Result: N

Q: Hello, I need to know if `C[C@@H]1CN(CCCc2ccccc2)[C@H]2C[C@H](N(C)CC3CC3)C[C@]1(c1cccc(O)c1)C2` has measured pKi not below 9. Thanks!
Result: Y

Q: Hello, I need to know if `C[C@@H]1CN(CCCc2ccccc2)[C@H]2C[C@H](NCC3CC3)C[C@]1(c1cccc(O)c1)C2` has measured pKi not below 9. Thanks!
Result: N

Q: Hello, I need to know if `C[C@@H]1CN(CCCc2ccccc2)[C@H]2C[C@H](N(C)C)C[C@]1(c1cccc(O)c1)C2` has measured pKi not below 9. Thanks!
Result: Y

Q: Hello, I need to know if `CN[C@H]1C[C@H]2C[C@@](c3cccc(O)c3)(C1)[C@H](C)CN2CCCc1ccccc1` has measured pKi not below 9. Thanks!
Result: Y

###

target: Mu-type opioid receptor (Homo sapiens, UniProt P35372); test: Agonist activity at human mu opioid receptor expressed in CHO cells by [35S]GTPgammaS binding assay; type: functional, cell-based
property_measured: EC50 (nM)
Expressed in nM, but write only the number.

Q: Query for Mu-type opioid receptor (Homo sapiens, UniProt P35372): what EC50 does the record show for `CCN[C@H]1C[C@H]2C[C@@](c3cccc(O)c3)(C1)[C@H](C)CN2CCCc1ccccc1` ?
Result: 33

Q: Query for Mu-type opioid receptor (Homo sapiens, UniProt P35372): what EC50 does the record show for `C[C@H]1CN(CCCc2ccccc2)[C@@H]2C[C@@H](N)C[C@@]1(c1cccc(O)c1)C2` ?
Result: 20.6

Q: Query for Mu-type opioid receptor (Homo sapiens, UniProt P35372): what EC50 does the record show for `C[C@@H]1CN(CCCc2ccccc2)[C@H]2C[C@H](NCC3CC3)C[C@]1(c1cccc(O)c1)C2` ?
Result: 130

Q: Query for Mu-type opioid receptor (Homo sapiens, UniProt P35372): what EC50 does the record show for `CCCN[C@H]1C[C@H]2C[C@@](c3cccc(O)c3)(C1)[C@H](C)CN2CCCc1ccccc1` ?
Result: 18

Q: Query for Mu-type opioid receptor (Homo sapiens, UniProt P35372): what EC50 does the record show for `CN[C@H]1C[C@H]2C[C@@](c3cccc(O)c3)(C1)[C@H](C)CN2CCCc1ccccc1` ?
Result: 15

Q: Query for Mu-type opioid receptor (Homo sapiens, UniProt P35372): what EC50 does the record show for `C[C@@H]1CN(CCCc2ccccc2)[C@H]2C[C@H](N(C)CC3CC3)C[C@]1(c1cccc(O)c1)C2` ?
Result: 2.7

Q: Query for Mu-type opioid receptor (Homo sapiens, UniProt P35372): what EC50 does the record show for `CCN(C)[C@H]1C[C@H]2C[C@@](c3cccc(O)c3)(C1)[C@H](C)CN2CCCc1ccccc1` ?
Result: 60

Q: Query for Mu-type opioid receptor (Homo sapiens, UniProt P35372): what EC50 does the record show for `C[C@@H]1CN(CCCc2ccccc2)[C@H]2C[C@H](N(C)C)C[C@]1(c1cccc(O)c1)C2` ?
Result: 6.5

###

biological target: Delta-type opioid receptor (Homo sapiens, UniProt P41143); experiment: Agonist activity at human delta opioid receptor expressed in CHO cells by [35S]GTPgammaS binding assay relative to DPDPE; format: functional, cell-based
Assign Emax to each entry below.
Form entry: enter the amount, then its unit.

Q: Emax lookup needed for `C[C@@H]1CN(CCCc2ccccc2)[C@H]2C[C@H](N(C)CC3CC3)C[C@]1(c1cccc(O)c1)C2` , thanks.
Result: 24%

Q: Emax lookup needed for `CN[C@H]1C[C@H]2C[C@@](c3cccc(O)c3)(C1)[C@H](C)CN2CCCc1ccccc1` , thanks.
Result: 101%

Q: Emax lookup needed for `C[C@@H]1CN(CCCc2ccccc2)[C@H]2C[C@H](N(C)C)C[C@]1(c1cccc(O)c1)C2` , thanks.
Result: 55%

Q: Emax lookup needed for `C[C@@H]1CN(CCCc2ccccc2)[C@H]2C[C@H](N)C[C@]1(c1cccc(O)c1)C2` , thanks.
Result: 101%
